The measurements presented in this section are drawn from patent US20140039044A1.

Listing: Cell Cycle Distribution G2/M of selected molecules
test system: COLO205 cells; assay: Cell cycle distribution by flow cytometry; type: cell-based, human; settings: COLO205 cells, 100 μM, 24 h, Table 12

> print(dat)
                                   molecule  target.under.test       result
1  COc1c(OC)c(OC)c2c(=O)cc(-c3ccc(O)c(O)c3)oc2c1OC [H]      COLO205 cells  6.98 ± 0.02
2  COc1cc(-c2cc(=O)c3c(OC)c(OC)c(OC)c(OC)c3o2)cc(OC)c1OC [F, 5,6,7,8,3′,4′,5′-heptamethoxyflavone, reference compound]      COLO205 cells  8.65 ± 0.19
3  COc1cc(-c2cc(=O)c3c(O)c(OC)c(OC)c(OC)c3o2)cc(OC)c1OC [E]      COLO205 cells  5.52 ± 0.90

Req: Would you kindly share the measured Cell Cycle Distribution G2/M for COc1ccc(-c2oc3c(OC)c(OC)c(OC)c(OC)c3c(=O)c2O)cc1OC [B] ?
Resp: 3.99 ± 0.95
